Source listed as patent US5712417A.

Target desc: HIV protease (Human immunodeficiency virus type 1 group M subtype B, UniProt P04585)
Construct: HIV protease consists of 99 amino acids and is evidently split off by itself from the pol polyprotein
Measurement description: Inhibition of HIV protease (cleavage of H-Ser-Phe-Asn-Phe-Opr-Gln-Ile-OH, HPLC)
Assay type: biochemical
Settings: inhibitor concentration at which the cleavage rate is halved; pH 6, 2 hours; read-out: IC50
Value kind: IC50 (µM)

A. COc1ccc(C[C@H](NC(=O)OC(C)(C)C)C(=O)N[C@H](C(=O)N[C@@H](Cc2ccccc2)[C@H](O)[C@@H](O)[C@H](Cc2ccccc2)NC(=O)[C@@H](NC(=O)[C@H](Cc2ccc(OC)cc2)NC(=O)OC(C)(C)C)C(C)C)C(C)C)cc1
B. CC(C)[C@H](NC(=O)[C@H](Cc1ccccc1)NC(=O)OC(C)(C)C)C(=O)N[C@H](Cc1ccccc1)[C@@H](O)[C@H](O)[C@@H](Cc1ccccc1)NC(=O)[C@@H](NC(=O)[C@H](Cc1ccccc1)NC(=O)OC(C)(C)C)C(C)C
[ask] Between the entries labeled A and B , whose measured IC50 is lower? # reply format: chosen label
[reply] A
(A: 0.0092 µM, B: 20 µM)

###

Target desc: HIV protease (Human immunodeficiency virus type 1 group M subtype B, UniProt P04585)
Construct: HIV protease consists of 99 amino acids and is evidently split off by itself from the pol polyprotein
Measurement description: Inhibition of HIV protease (cleavage of H-Ser-Phe-Asn-Phe-Opr-Gln-Ile-OH, HPLC)
Assay type: biochemical
Settings: inhibitor concentration at which the cleavage rate is halved; pH 6, 2 hours; read-out: IC50
pIC50: −log10 of the molar value. Where a name gives a salt, the structure may show the parent alone.
Value kind: pIC50

Compound	Target desc	Test value
CC(C)[C@H](NC(=O)[C@@H](N)Cc1ccc(O)cc1)C(=O)N[C@@H](Cc1ccccc1)[C@H](O)[C@@H](O)[C@H](Cc1ccccc1)NC(=O)[C@@H](NC(=O)[C@@H](N)Cc1ccc(O)cc1)C(C)C	HIV protease (Human immunodeficiency virus type 1 group M subtype B, UniProt P04585)	8.74

P. CC(C)[C@H](NC(=O)[C@H](Cc1cccc2ccccc12)NC(=O)OC(C)(C)C)C(=O)N[C@@H](Cc1ccccc1)[C@@H](O)[C@H](O)[C@H](Cc1ccccc1)NC(=O)[C@@H](NC(=O)[C@H](Cc1cccc2ccccc12)NC(=O)OC(C)(C)C)C(C)C
Q. CC(C)[C@H](NC(=O)[C@@H](N)Cc1cccc2ccccc12)C(=O)N[C@@H](Cc1ccccc1)[C@@H](O)[C@H](O)[C@H](Cc1ccccc1)NC(=O)[C@@H](NC(=O)[C@@H](N)Cc1cccc2ccccc12)C(C)C [Example 39, dihydrochloride]
R. CC(C)[C@H](NC(=O)[C@H](Cc1cccc2ccccc12)CS(=O)(=O)C(C)(C)C)C(=O)NCCCCNC(=O)[C@@H](NC(=O)[C@H](Cc1cccc2ccccc12)CS(=O)(=O)C(C)(C)C)C(C)C
[ask] rank_up(items): orders items by reported pIC50 in ascending numerical order. List labels; respect the requested ordering.
[reply] R, P, Q

###

Target desc: HIV protease (Human immunodeficiency virus type 1 group M subtype B, UniProt P04585)
Construct: HIV protease consists of 99 amino acids and is evidently split off by itself from the pol polyprotein
Measurement description: Inhibition of HIV protease (cleavage of H-Ser-Phe-Asn-Phe-Opr-Gln-Ile-OH, HPLC)
Assay type: biochemical
Settings: inhibitor concentration at which the cleavage rate is halved; pH 6, 2 hours; read-out: IC50
Counter-ions that a name gives are not always drawn.
Value kind: IC50 (nM)

Use these answered entries as a reference point.
Molecule	Target desc	IC50 (nM)
COc1ccc(C[C@H](N)C(=O)N[C@H](C(=O)N[C@@H](Cc2ccccc2)[C@H](O)[C@@H](O)[C@H](Cc2ccccc2)NC(=O)[C@@H](NC(=O)[C@@H](N)Cc2ccc(OC)cc2)C(C)C)C(C)C)cc1 [Example 76, dihydrochloride]	HIV protease (Human immunodeficiency virus type 1 group M subtype B, UniProt P04585)	0.29
CC(C)[C@H](NC(=O)[C@H](Cc1ccccc1)NC[C@@]1(O)OC[C@@H](O)[C@@H](O)[C@@H]1O)C(=O)N[C@@H](Cc1ccccc1)[C@H](O)[C@@H](O)[C@H](Cc1ccccc1)NC(=O)[C@@H](NC(=O)[C@H](Cc1ccccc1)NC[C@@]1(O)OC[C@@H](O)[C@@H](O)[C@@H]1O)C(C)C	HIV protease (Human immunodeficiency virus type 1 group M subtype B, UniProt P04585)	5

1. CC(C)[C@H](NC(=O)CNC(=O)OC(C)(C)C)C(=O)N[C@@H](Cc1ccccc1)[C@@H](O)[C@H](O)[C@H](Cc1ccccc1)NC(=O)[C@@H](NC(=O)CNC(=O)OC(C)(C)C)C(C)C
2. CC(C)[C@H](NC(=O)[C@@H](N)Cc1ccccc1)C(=O)N[C@@H](CCc1ccncc1)[C@@H](O)[C@H](O)[C@H](CCc1ccncc1)NC(=O)[C@@H](NC(=O)[C@@H](N)Cc1ccccc1)C(C)C
[ask] Which record shows the lower IC50: the first, 1 , or the second, 2 ? Write down the label of the entry you select.
[reply] 1
